Test system: SK-MEL-28 melanoma
assay comment: NCI tumour cell line growth inhibition, 48 h
Label met when TGI is at or above 7 µM; anything below gets not met.

{"molecule": "CCN(CC)C(=S)SC(C(=O)Nc1nnc(-c2ccccc2)o1)c1ccccc1 (stereo not given)", "discrete label": "met"}
{"molecule": "CC(NC(=O)c1ccc(NP(=O)(OCc2ccc([N+](=O)[O-])o2)N(C)CCCCCl)cc1)c1ccc(OCC2CCCCC2)c(C(N)=O)c1 (stereo not given)", "discrete label": "met"}
{"molecule": "CC(CN(C)C)Oc1ccccc1NC1=C(Cl)C(=O)C(Nc2ccccc2OC(C)CN(C)C)=C(Cl)C1=O (stereo not given)", "discrete label": "not met"}
{"molecule": "O=C(O/N=C1/CCC/C1=C\\c1ccccc1)c1ccc(Cl)c(Cl)c1", "discrete label": "met"}
{"molecule": "C[N+](C)(C)c1cc2c(nn1)Nc1ccccc1S2", "discrete label": "met"}
{"molecule": "CCCCCCCCCCCCCCCCOP(=O)(O)OCC(NC(C)=O)C(=O)O (stereo not given)", "discrete label": "met"}
{"molecule": "Cc1cc(N2CCOCC2)nc(N(CCCNc2ccnc3cc(Cl)ccc23)Cc2ccco2)n1", "discrete label": "not met"}
{"molecule": "CC(=O)O[C@H]1[C@@H]2OC(=O)C(CSc3ccccc3)[C@@H]2C[C@H]2O[C@]2(C)CC/C=C(\\C)CCC[C@@H]1C (stereo not given in full)", "discrete label": "not met"}
{"molecule": "CN1C(=O)C(O)CC1c1ccccc1C(F)(F)F (stereo not given)", "discrete label": "met"}
{"molecule": "O=C(O)c1c(=O)cccc2ssc12", "discrete label": "not met"}

---

Test system: BT-549 breast
assay comment: NCI tumour cell line growth inhibition, 48 h
Label 1 (yes) when TGI is at or above 20 µM; anything below gets 0 (no).

{"compound": "Clc1ccccc1CNc1c2ccccc2nc2ccccc12", "discrete label": "0 (no)"}
{"compound": "CO/N=C(\\COc1ccc2oc(-c3ccccc3)cc(=O)c2c1)c1ccc(OC)cc1", "discrete label": "1 (yes)"}
{"compound": "C[C@]12CC[C@@H]3c4ccc(O)cc4CC[C@H]3[C@@H]1CC[C@@H]2OC(=O)CCc1ccccc1", "discrete label": "1 (yes)"}
{"compound": "C[N+](C)(C)CC(=O)N/N=C(\\C(=O)NC1=C(Cl)C(=O)c2ccccc2C1=O)C(C#N)c1nc(-c2ccc([N+](=O)[O-])cc2)cs1 (configuration not stated)", "discrete label": "0 (no)"}
{"compound": "ONC1=Nc2ccccc2C(=S)N2CSCC12 (configuration not stated)", "discrete label": "1 (yes)"}
{"compound": "CCCCCCCCCCCCCCCCOP(=O)(O)OCC(NC(C)=O)C(=O)O (configuration not stated)", "discrete label": "1 (yes)"}
{"compound": "Oc1c(Br)cc(/C=C/c2cccc(/C=C/c3cc(Br)c(O)c(Br)c3)n2)cc1Br", "discrete label": "1 (yes)"}
{"compound": "Cc1ccc(NC(=O)CSc2nnc3n(Cc4ccccc4)c(=O)c4c(C)c(C(N)=O)sc4n23)cc1", "discrete label": "1 (yes)"}
{"compound": "CSc1nc2c(c(N3CCOCC3)n1)C(O)n1c(nc3ccccc31)S2 (configuration not stated)", "discrete label": "1 (yes)"}
{"compound": "CCCCCCCCCNC(=O)/C=C/c1ccc(O)c(O)c1", "discrete label": "1 (yes)"}
{"compound": "CC1=NN(c2nc(N)nc(C/C(N)=N/O)n2)C(C)(C)C1", "discrete label": "1 (yes)"}
{"compound": "C=C(CO)[C@@H]1CC[C@]2(COC3CCCCO3)CC[C@]3(C)[C@H](CC[C@@H]4[C@@]5(C)C=C(C=O)C(=O)C(C)(C)[C@@H]5CC[C@]43C)[C@@H]12 (some centres not stated)", "discrete label": "0 (no)"}
{"compound": "CCN(CC)c1ccc(/C=C/C(=O)c2cc(C(C)(C)C)c(O)c(C(C)(C)C)c2)cc1", "discrete label": "1 (yes)"}
{"compound": "CC1=C(C(=O)Nc2cc(Cl)c3[nH]ncc3c2)C(c2ccc(C(F)(F)F)cc2)CC(=O)N1 (configuration not stated)", "discrete label": "1 (yes)"}
{"compound": "COc1ccc2c(c1)C(=O)/C(=C/c1ccc([N+](=O)[O-])o1)O2", "discrete label": "0 (no)"}
{"compound": "O=C1c2ccccc2-c2c1c1c(O)cccc1n2Cc1ccccn1", "discrete label": "1 (yes)"}
{"compound": "NS(=O)(=O)NCCNc1nonc1C(=Nc1ccc(F)c(Br)c1)NO", "discrete label": "1 (yes)"}
